Catalogue of compounds with associated IC50
Tested on: A549 viability, CellTiter-Glo luminescence, 48 h
Assay: A549 cell killing, TP53 wild-type line, dose response, selectivity assay for TP53-mutant selective toxicity project, CellTiter-Glo luminescence, dry powder (AID 743090)
Active and inactive are the calls of the source.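 The calls were made as follows: active = IC50 below 10 µM in A549 cells, with the call taken as the median across tests; inactive = IC50 above 10 µM in A549 cells.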
readout name: IC50

compound=C[C@@H]1CC(=O)NN=C1c1ccc(N2CCOCC2)c(F)c1 reported_measurement="> 10 µM (inactive)"
compound="CCN(CC)c1ccc(C2=NNC(=O)CC2C)cc1[N+](=O)[O-] (centres undefined)" reported_measurement="> 10 µM (inactive)"
compound=C[C@@H]1CC(=O)NN=C1c1ccc(C2CCCCC2)cc1 reported_measurement="> 10 µM (inactive)"
compound=C[C@@H]1CC(=O)NN=C1c1ccccc1 reported_measurement="> 10 µM (inactive)"
compound="C[C@@H]1CC(=O)NN=C1c1ccc(F)cc1 (racemic)" reported_measurement="> 10 µM (inactive)"
compound="CC(=O)N1CCN(c2ccc(C3=NNC(=O)CC3C)cc2F)CC1 (centres undefined)" reported_measurement="> 10 µM (inactive)"
compound=CCN(CC)c1ccc(C(=O)Nc2ccccc2)cc1[N+](=O)[O-] reported_measurement="> 10 µM (inactive)"
compound=C[C@@H]1CC(=O)NN=C1c1ccc(N2CCCCS2(=O)=O)cc1 reported_measurement="> 10 µM (inactive)"
compound=C[C@@H]1CC(=O)NN=C1c1ccc(N2CCCCC2)cc1 reported_measurement="> 10 µM (inactive)"
compound="CCN(CC)c1ccc(C2=NNC(=O)CC2C)cc1NCCOCCOCCNC(=O)OC(C)(C)C (centres undefined)" reported_measurement="> 10 µM (inactive)"
compound="CC1CC(=O)NN=C1c1ccc(F)c(F)c1 (centres undefined)" reported_measurement="> 10 µM (inactive)"
compound=CCN(CC)c1ccc(C2=NNC(=O)C[C@H]2C)cc1 reported_measurement="> 10 µM (inactive)"
compound=CCCc1ccc(C2=NNC(=O)C[C@H]2C)cc1 reported_measurement="> 10 µM (inactive)"
compound=CC(=O)Nc1ccc(C2=NNC(=O)C[C@H]2C)cc1Br reported_measurement="> 10 µM (inactive)"
